Experiment: soluble fraction after stress (log2 fold change); higher = more stays soluble; pooled small domains, quantitative proteomics
Details: stress: 50 degC
Answer class 0 if soluble fraction (log2) is under 0.1, and class 1 if it is 0.1 or more.

{"polymerSequence": "HMRLPNHYGSVVKLSGKRRRPFMVRGGVYGYDDRGYPQYVIVGYTETREQGLTMLAEYNRNP", "group": "class 0"}
{"polymerSequence": "HMNKELVVPDLTDMRVKDAEFEAHQVGMRTEIVDSVYVRRLKRGYVYKQNPVPGSKVKKGRRIALTINAV", "group": "class 1"}
{"polymerSequence": "HMSMDPYTVLGVNKSSTDSQIKNAYKNLAKQHHPDRGGNEAKFKEISTAYEQIKTAEKRQQYDMSQQF", "group": "class 1"}
{"polymerSequence": "HMGRHSPLSIEQKEQLKTEIVALQQQRGGGRVTAVNIAELIQQKFNVVYNPNSLYKLLKQIGMSWV", "group": "class 0"}
{"polymerSequence": "HMETLKEVPNLKGQQQEVAKQLLINAGLGVGKINIIEDSTIADGEVVTQSILPNTKVKKDTYVGFTVNKAP", "group": "class 0"}
{"polymerSequence": "HMKVYPIMEAIANNNIELVKLLLEYHADLNIKDSNGNTPLALAKETGAKEVEDLLLQWMKQHT", "group": "class 0"}
{"polymerSequence": "HMKRTKLEEATEWLRDRLSDGVKYNGEELLREGESADMARRTLRRAAQELGVIIERERGARGRWFWSLP", "group": "class 0"}
{"polymerSequence": "HMTVTTDITQYFLQENGLLNGPNARQLRQKIGETLNIGYTNGKQLLKRAQQFGLTRDQILTALKK", "group": "class 0"}
